System: 138582-337-R-J1-PDC spheroids with HUVEC/MSC, viability;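 also: spheroids exposed to compounds for seven days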
protocol.text: Anticancer human tumor 138582-337-R-J1-PDC patient-derived Merkel cell tumor cell line growth inhibition [IpAb]
condition.parameters: curve of first compound; second compound 0.1 µM
Method: Combinatorial screen of targeted agents with ipatasertib and abemaciclib in multi-cell type tumor spheroids […] Compounds. […] If the clinical Cmax for an agent had not been determined, the highest concentration tested was 10 microM. NCI60 Cell Culture. […] The optimal seeding densities for each of the cell lines at each time point assessed were determined prior to performing the concentration response studies. […]
Below is a list of entries, each paired with its recorded IC50 value.

compound: CC(C)n1nc(-c2ccc3oc(N)nc3c2)c2c(N)ncnc21 + CCN1CCN(Cc2ccc(Nc3ncc(F)c(-c4cc(F)c5nc(C)n(C(C)C)c5c4)n3)nc2)CC1
study.target: 138582-337-R-J1-PDC spheroids with HUVEC/MSC, viability;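 also: spheroids exposed to compounds for seven days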
unit.of.measure: nM
lt.gt.eq: =
IC50: 52.9
--
compound: Cn1nccc1Nc1nccc(-c2ccn(C(CO)c3ccc(Cl)c(F)c3)c(=O)c2)n1 (stereo not given) + CC(C)NCC(C(=O)N1CCN(c2ncnc3c2C(C)CC3O)CC1)c1ccc(Cl)cc1
study.target: 138582-337-R-J1-PDC spheroids with HUVEC/MSC, viability;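 also: spheroids exposed to compounds for seven days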
unit.of.measure: nM
lt.gt.eq: >
IC50: 10000
--
compound: C=CC(=O)N1CCN(c2nc(=O)n(-c3c(C)ccnc3C(C)C)c3nc(-c4c(O)cccc4F)c(F)cc23)C(C)C1 (stereo not given) + CCN1CCN(Cc2ccc(Nc3ncc(F)c(-c4cc(F)c5nc(C)n(C(C)C)c5c4)n3)nc2)CC1
study.target: 138582-337-R-J1-PDC spheroids with HUVEC/MSC, viability;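 also: spheroids exposed to compounds for seven days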
unit.of.measure: nM
lt.gt.eq: >
IC50: 10000
--
compound: CC(C)n1nc(-c2ccc3oc(N)nc3c2)c2c(N)ncnc21 + CC(C)NCC(C(=O)N1CCN(c2ncnc3c2C(C)CC3O)CC1)c1ccc(Cl)cc1
study.target: 138582-337-R-J1-PDC spheroids with HUVEC/MSC, viability;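 also: spheroids exposed to compounds for seven days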
unit.of.measure: nM
lt.gt.eq: =
IC50: 22.4
--
compound: CC(C)(C)c1cnc(CSc2cnc(NC(=O)C3CCNCC3)s2)o1 + CCN1CCN(Cc2ccc(Nc3ncc(F)c(-c4cc(F)c5nc(C)n(C(C)C)c5c4)n3)nc2)CC1
study.target: 138582-337-R-J1-PDC spheroids with HUVEC/MSC, viability;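 also: spheroids exposed to compounds for seven days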
unit.of.measure: nM
lt.gt.eq: =
IC50: 120
--
compound: Cn1ncnc1[C@H]1c2n[nH]c(=O)c3cc(F)cc(c23)N[C@@H]1c1ccc(F)cc1 + CC(C)NCC(C(=O)N1CCN(c2ncnc3c2C(C)CC3O)CC1)c1ccc(Cl)cc1
study.target: 138582-337-R-J1-PDC spheroids with HUVEC/MSC, viability;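 also: spheroids exposed to compounds for seven days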
unit.of.measure: nM
lt.gt.eq: >
IC50: 100
--
compound: C=CCn1c(=O)c2cnc(Nc3ccc(N4CCN(C)CC4)cc3)nc2n1-c1cccc(C(C)(C)O)n1 + CC(C)NCC(C(=O)N1CCN(c2ncnc3c2C(C)CC3O)CC1)c1ccc(Cl)cc1
study.target: 138582-337-R-J1-PDC spheroids with HUVEC/MSC, viability;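 also: spheroids exposed to compounds for seven days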
unit.of.measure: nM
lt.gt.eq: >
IC50: 10000
--
compound: CC1(C)CCC(CN2CCN(c3ccc(C(=O)NS(=O)(=O)c4ccc(NCC5CCOCC5)c([N+](=O)[O-])c4)c(Oc4cnc5[nH]ccc5c4)c3)CC2)=C(c2ccc(Cl)cc2)C1 + CC(C)NCC(C(=O)N1CCN(c2ncnc3c2C(C)CC3O)CC1)c1ccc(Cl)cc1
study.target: 138582-337-R-J1-PDC spheroids with HUVEC/MSC, viability;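 also: spheroids exposed to compounds for seven days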
unit.of.measure: nM
lt.gt.eq: >
IC50: 10000
--
compound: Cn1nccc1Nc1nccc(-c2ccn(C(CO)c3ccc(Cl)c(F)c3)c(=O)c2)n1 (stereo not given) + CCN1CCN(Cc2ccc(Nc3ncc(F)c(-c4cc(F)c5nc(C)n(C(C)C)c5c4)n3)nc2)CC1
study.target: 138582-337-R-J1-PDC spheroids with HUVEC/MSC, viability;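 also: spheroids exposed to compounds for seven days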
unit.of.measure: nM
lt.gt.eq: >
IC50: 10000
--
compound: CC(C)(C)c1cnc(CSc2cnc(NC(=O)C3CCNCC3)s2)o1 + CC(C)NCC(C(=O)N1CCN(c2ncnc3c2C(C)CC3O)CC1)c1ccc(Cl)cc1
study.target: 138582-337-R-J1-PDC spheroids with HUVEC/MSC, viability;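 also: spheroids exposed to compounds for seven days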
unit.of.measure: nM
lt.gt.eq: =
IC50: 94.5
--
compound: CCCS(=O)(=O)Nc1ccc(F)c(C(=O)c2c[nH]c3ncc(-c4ccc(Cl)cc4)cc23)c1F + CCN1CCN(Cc2ccc(Nc3ncc(F)c(-c4cc(F)c5nc(C)n(C(C)C)c5c4)n3)nc2)CC1
study.target: 138582-337-R-J1-PDC spheroids with HUVEC/MSC, viability;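 also: spheroids exposed to compounds for seven days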
unit.of.measure: nM
lt.gt.eq: =
IC50: 7490
--
compound: CC(=O)c1c(C)c2cnc(Nc3ccc(N4CCNCC4)cn3)nc2n(C2CCCC2)c1=O + CCN1CCN(Cc2ccc(Nc3ncc(F)c(-c4cc(F)c5nc(C)n(C(C)C)c5c4)n3)nc2)CC1
study.target: 138582-337-R-J1-PDC spheroids with HUVEC/MSC, viability;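 also: spheroids exposed to compounds for seven days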
unit.of.measure: nM
lt.gt.eq: >
IC50: 300
--
compound: COc1c(OCCCN2CCOCC2)ccc2c3n(c(=NC(=O)c4cnc(N)nc4)nc12)CCN3 + CC(C)NCC(C(=O)N1CCN(c2ncnc3c2C(C)CC3O)CC1)c1ccc(Cl)cc1
study.target: 138582-337-R-J1-PDC spheroids with HUVEC/MSC, viability;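 also: spheroids exposed to compounds for seven days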
unit.of.measure: nM
lt.gt.eq: =
IC50: 46.5
--
compound: COc1c(OCCCN2CCOCC2)ccc2c3n(c(=NC(=O)c4cnc(N)nc4)nc12)CCN3 + CCN1CCN(Cc2ccc(Nc3ncc(F)c(-c4cc(F)c5nc(C)n(C(C)C)c5c4)n3)nc2)CC1
study.target: 138582-337-R-J1-PDC spheroids with HUVEC/MSC, viability;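 also: spheroids exposed to compounds for seven days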
unit.of.measure: nM
lt.gt.eq: =
IC50: 43.2
--
compound: Cc1nc(NC(=O)N2CCCC2C(N)=O)sc1-c1ccnc(C(C)(C)C(F)(F)F)c1 (stereo not given) + CCN1CCN(Cc2ccc(Nc3ncc(F)c(-c4cc(F)c5nc(C)n(C(C)C)c5c4)n3)nc2)CC1
study.target: 138582-337-R-J1-PDC spheroids with HUVEC/MSC, viability;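 also: spheroids exposed to compounds for seven days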
unit.of.measure: nM
lt.gt.eq: =
IC50: 1140
